What GCaMP6 (%) spontaneous motor neuron activity was measured for each of the following?
tested on: SOD1(A4V) ALS motor neurons; format: cell-based, human; settings: calcium wave count normalized to the DMSO control (100.00)
Field format: number, assumed %, no unit text.

Documented GCaMP6 (%) spontaneous motor neuron activity of `O=C(Nc1cnc(Cl)nc1)c1ccc(F)c(F)c1` : 13.33

Reported GCaMP6 (%) spontaneous motor neuron activity for Cc1cc(C)c(NC(=O)C2CC3CCC2C3)c(C)c1 (stereo not shown) was 0.00

Record `COc1ccc(Cl)cc1[C@]1(F)C(=O)Nc2cc(C(F)(F)F)ccc21` , field GCaMP6 (%) spontaneous motor neuron activity: 36.67

molecule `Cc1cc(NC2CCCCC2)nc(-n2nc(C)cc2C)n1` , GCaMP6 (%) spontaneous motor neuron activity observed: 80.00

Memo: `O=C(Nc1ccc(Cl)nc1)c1ccc(F)c(F)c1` , reported GCaMP6 (%) spontaneous motor neuron activity: 0.00

The value of GCaMP6 (%) spontaneous motor neuron activity measured for the molecule `O=C1Nc2c(ccc(Cl)c2Cl)C1=NO` turned out to be 110.00

Reported GCaMP6 (%) spontaneous motor neuron activity for `COCC(=O)O[C@]1(CCN(C)CCCc2nc3ccccc3[nH]2)CCc2cc(F)ccc2[C@@H]1C(C)C` was 0.00

The recorded GCaMP6 (%) spontaneous motor neuron activity for entry `O=C1NC(=O)C(c2ccccc2)(c2ccccc2)N1` equals 116.67

Consider `Nc1nc2c(ccc3ccccc32)s1` . Its measured GCaMP6 (%) spontaneous motor neuron activity is 123.33

Looking up CCn1c(=O)[nH]c2ccccc21 [1-Ebio (SB-423901)] , I see its GCaMP6 (%) spontaneous motor neuron activity listed as 103.33

====

tested on: SOD1(A4V) motor neurons; assay: Multiple electrode array; assay type: cell-based, human
Assign MEA (%) spontaneous motor neuron activity to each entry below.
Lab book: enter the figure in %, no units written.

Note to self: MEA (%) spontaneous motor neuron activity recorded for O=C1Nc2c(ccc(Cl)c2Cl)C1=NO [NS309] was 86.56

# MEA (%) spontaneous motor neuron activity of COCC(=O)O[C@]1(CCN(C)CCCc2nc3ccccc3[nH]2)CCc2cc(F)ccc2[C@@H]1C(C)C [Mibefradil] = 0.02

Quick note, MEA (%) spontaneous motor neuron activity for O=C(Nc1cnc(Cl)nc1)c1ccc(F)c(F)c1 [ICA 069673] landed at 0.07

For reference, reported MEA (%) spontaneous motor neuron activity for COc1ccc(Cl)cc1[C@]1(F)C(=O)Nc2cc(C(F)(F)F)ccc21 [Maxipost (BMS-204352)] stands at 22.32

Reported MEA (%) spontaneous motor neuron activity for Cc1cc(C)c(NC(=O)C2CC3CCC2C3)c(C)c1 (stereo not drawn) [ML213] was 0.38

// recorded MEA (%) spontaneous motor neuron activity for CCn1c(=O)[nH]c2ccccc21 [1-Ebio (SB-423901)] : 122.81

// recorded MEA (%) spontaneous motor neuron activity for Nc1nc2c(ccc3ccccc32)s1 [SKA 31] : 106.67

Just so you know, measured MEA (%) spontaneous motor neuron activity for Cc1cc(NC2CCCCC2)nc(-n2nc(C)cc2C)n1 [CyPPA (NS6277)] came out at 12.72

The reported value for CN(C)C(=O)C(CCN1CCC(O)(c2ccc(Cl)cc2)CC1)(c1ccccc1)c1ccccc1 [Loperamide] in terms of MEA (%) spontaneous motor neuron activity is 0.02
